# study system: wt-EGFR (Homo sapiens (Human))
# Sequence (P00533 25-1210): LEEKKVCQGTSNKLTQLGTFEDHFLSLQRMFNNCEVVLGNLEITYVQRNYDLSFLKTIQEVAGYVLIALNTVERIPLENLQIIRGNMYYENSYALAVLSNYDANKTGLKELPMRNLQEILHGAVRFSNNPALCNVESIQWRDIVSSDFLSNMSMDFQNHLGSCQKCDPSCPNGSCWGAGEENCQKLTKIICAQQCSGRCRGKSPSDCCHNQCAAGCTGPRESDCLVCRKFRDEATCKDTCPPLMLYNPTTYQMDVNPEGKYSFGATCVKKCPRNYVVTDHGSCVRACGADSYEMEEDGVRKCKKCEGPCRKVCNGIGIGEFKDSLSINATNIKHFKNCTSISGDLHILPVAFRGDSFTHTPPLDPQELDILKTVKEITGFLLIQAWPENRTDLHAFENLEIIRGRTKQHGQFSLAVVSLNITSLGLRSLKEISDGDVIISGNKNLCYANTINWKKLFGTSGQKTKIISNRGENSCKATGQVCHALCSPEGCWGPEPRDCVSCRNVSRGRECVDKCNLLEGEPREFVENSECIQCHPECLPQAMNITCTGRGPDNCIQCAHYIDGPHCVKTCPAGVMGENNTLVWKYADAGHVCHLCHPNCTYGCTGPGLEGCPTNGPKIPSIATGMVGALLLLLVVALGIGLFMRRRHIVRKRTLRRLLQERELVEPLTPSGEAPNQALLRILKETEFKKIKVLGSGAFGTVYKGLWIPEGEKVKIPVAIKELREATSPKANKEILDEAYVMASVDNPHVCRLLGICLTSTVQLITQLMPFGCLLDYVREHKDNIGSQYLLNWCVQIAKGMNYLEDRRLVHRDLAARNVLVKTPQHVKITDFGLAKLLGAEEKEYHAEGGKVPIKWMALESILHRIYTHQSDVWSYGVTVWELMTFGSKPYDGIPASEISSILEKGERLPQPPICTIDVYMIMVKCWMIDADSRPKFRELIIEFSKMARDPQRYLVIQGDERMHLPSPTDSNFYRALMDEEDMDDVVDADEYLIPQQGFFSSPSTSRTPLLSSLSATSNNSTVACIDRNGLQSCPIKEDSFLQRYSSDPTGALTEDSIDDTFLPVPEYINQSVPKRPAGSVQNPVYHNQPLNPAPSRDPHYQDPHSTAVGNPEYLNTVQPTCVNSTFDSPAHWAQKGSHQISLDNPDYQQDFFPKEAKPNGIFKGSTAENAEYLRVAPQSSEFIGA
# method: NCI H838 cellular assay (wt-EGFR inhibition), phospho-EGFR ELISA
# Format: cell-based
# experimental conditions: inhibition of phosphor wt-EGFR, NCI H838 cells, EGF 100 ng/ml
pIC50: −log10 of the molar value.

>  <compound>
COc1ccc2ncnc(Nc3ccc(Oc4cc5ncnn5cn4)c(C)c3)c2c1N1CC2(C[C@@H](F)CN2C)C1 (single isomer, unassigned)

>  <comparison operator>
=

>  <pIC50>
6.63

$$$$
>  <compound>
COc1ccc2ncnc(Nc3ccc(Oc4cc5ncnn5cn4)c(C)c3)c2c1N1CC[C@H](N(C)C)C1

>  <comparison operator>
=

>  <pIC50>
6.48

$$$$
>  <compound>
Cc1cc(Nc2ncnc3ccc(NC4=NC(C)(C)CO4)c(N4CC(N(C)C)C4)c23)ccc1Oc1cc2ncnn2cn1

>  <comparison operator>
<

>  <pIC50>
5.00

$$$$
>  <compound>
COc1ccc2ncnc(Nc3ccc(Oc4cc5ncnn5cn4)c(C)c3)c2c1N1C[C@H]2[C@@H]1CCN2C

>  <comparison operator>
=

>  <pIC50>
5.18

$$$$
>  <compound>
COc1ccc2ncnc(Nc3ccc(Oc4cc5ncnn5cn4)c(C)c3)c2c1N1C[C@@H](N(C)C)[C@@H](F)C1

>  <comparison operator>
<

>  <pIC50>
5.00

$$$$
>  <compound>
CCOc1ccc2ncnc(Nc3ccc(Oc4cc5ncnn5cn4)c(C)c3)c2c1N1CC(N(C)C)C1

>  <comparison operator>
=

>  <pIC50>
5.17

$$$$
>  <compound>
COc1ccc2ncnc(Nc3ccc(Oc4cc5ncnn5cn4)c(Cl)c3)c2c1O[C@@H]1CCN(C)CC1(F)F

>  <comparison operator>
=

>  <pIC50>
6.40

$$$$

###

# study system: wt-EGFR (Homo sapiens (Human))
# method: NCI H838 cellular assay (wt-EGFR inhibition), phospho-EGFR ELISA
# Format: cell-based

>  <compound>
COc1ccc2ncnc(Nc3ccc(Oc4cc5ncnn5cn4)c(C)c3)c2c1O[C@@H]1CCN(C)CC1(F)F

>  <comparison operator>
=

>  <IC50 [µM]>
12

$$$$
>  <compound>
[2H]C([2H])([2H])N1CCC(Oc2c(OC)ccc3ncnc(Nc4ccc(Oc5cc6ncnn6cn5)c(C)c4)c23)C(F)(F)C1 (centres unmarked)

>  <comparison operator>
=

>  <IC50 [µM]>
1.28

$$$$
>  <compound>
[2H]C([2H])([2H])Oc1ccc2ncnc(Nc3ccc(Oc4cc5ncnn5cn4)c(C)c3)c2c1O[C@@H]1CCN(C)CC1(F)F

>  <comparison operator>
=

>  <IC50 [µM]>
0.44

$$$$
>  <compound>
[2H]C([2H])([2H])Oc1ccc2ncnc(Nc3ccc(Oc4cc5ncnn5cn4)c(C)c3)c2c1O[C@H]1CCN(C)CC1(F)F

>  <comparison operator>
>

>  <IC50 [µM]>
10

$$$$
>  <compound>
COc1ccc2ncnc(Nc3ccc(Oc4cc5ncnn5cn4)c(C)c3)c2c1O[C@H]1CCN(C)CC1(F)F

>  <comparison operator>
=

>  <IC50 [µM]>
4.8

$$$$

###

# study system: hERG channel (Homo sapiens (Human))
# Sequence (Q12809 whole entry): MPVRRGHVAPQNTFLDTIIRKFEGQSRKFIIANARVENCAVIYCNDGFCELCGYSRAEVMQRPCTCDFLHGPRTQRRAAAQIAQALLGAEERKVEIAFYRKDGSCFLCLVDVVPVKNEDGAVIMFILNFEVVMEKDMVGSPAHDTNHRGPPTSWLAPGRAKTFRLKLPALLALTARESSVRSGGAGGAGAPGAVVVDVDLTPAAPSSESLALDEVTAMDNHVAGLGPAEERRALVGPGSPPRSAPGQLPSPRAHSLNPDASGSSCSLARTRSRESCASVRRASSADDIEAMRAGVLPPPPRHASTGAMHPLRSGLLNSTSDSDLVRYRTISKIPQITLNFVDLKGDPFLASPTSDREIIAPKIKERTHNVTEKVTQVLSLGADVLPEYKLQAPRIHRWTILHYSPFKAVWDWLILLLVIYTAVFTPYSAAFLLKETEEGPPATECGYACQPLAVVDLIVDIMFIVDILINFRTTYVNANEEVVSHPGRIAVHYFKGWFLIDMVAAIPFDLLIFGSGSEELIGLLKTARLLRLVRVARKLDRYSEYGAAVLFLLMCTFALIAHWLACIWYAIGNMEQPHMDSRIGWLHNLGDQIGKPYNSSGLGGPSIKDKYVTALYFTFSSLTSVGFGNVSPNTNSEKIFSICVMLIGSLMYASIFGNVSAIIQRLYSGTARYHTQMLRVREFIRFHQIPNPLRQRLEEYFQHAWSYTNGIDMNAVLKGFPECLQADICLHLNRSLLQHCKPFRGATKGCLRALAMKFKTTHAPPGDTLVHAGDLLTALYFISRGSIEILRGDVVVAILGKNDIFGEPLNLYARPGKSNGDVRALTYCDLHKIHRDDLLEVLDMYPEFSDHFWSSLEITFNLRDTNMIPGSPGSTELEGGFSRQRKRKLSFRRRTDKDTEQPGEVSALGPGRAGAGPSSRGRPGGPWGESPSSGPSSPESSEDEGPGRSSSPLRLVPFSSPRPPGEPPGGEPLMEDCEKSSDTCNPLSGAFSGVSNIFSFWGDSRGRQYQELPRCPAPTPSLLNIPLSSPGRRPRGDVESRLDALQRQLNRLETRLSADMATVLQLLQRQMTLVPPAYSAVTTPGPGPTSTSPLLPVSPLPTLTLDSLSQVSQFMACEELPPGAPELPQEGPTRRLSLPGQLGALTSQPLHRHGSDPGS
# method: hERG inhibition, manual patch clamp in HEK 293 cells
# Format: cell-based
# experimental conditions: HEK 293 cell line stably expressing hERG channel, manual patch clamp
Measured IC50 of individual entries
outcome measure: IC50

>  <compound>
[2H]C([2H])([2H])Oc1ccc2ncnc(Nc3ccc(Oc4cc5ncnn5cn4)c(C)c3)c2c1O[C@@H]1CCN(C)CC1(F)F

>  <assay result>
> 10 µM

$$$$
>  <compound>
Cc1cc(Nc2ncnc3ccc(NC4=NC(C)(C)CO4)cc23)ccc1Oc1ccn2ncnc2c1 [Reference compound 3, reference compound]

>  <assay result>
> 10 µM

$$$$
>  <compound>
CCOc1cc2ncc(C#N)c(Nc3ccc(OCc4ccccn4)c(Cl)c3)c2cc1NC(=O)/C=C/CN(C)C [Reference compound 2, Neratinib, reference compound]

>  <assay result>
> 10 µM

$$$$
>  <compound>
COc1ccc2ncnc(Nc3ccc(Oc4cc5ncnn5cn4)c(C)c3)c2c1O[C@@H]1CCN(C)CC1(F)F

>  <assay result>
18 µM

$$$$
>  <compound>
CN1CCC(Oc2cccc3ncnc(Nc4ccc(NCc5ccccn5)c(Cl)c4)c23)CC1 [Reference compound 1, reference compound]

>  <assay result>
< 2 µM

$$$$
>  <compound>
COc1ccc2ncnc(Nc3ccc(Oc4cc5ncnn5cn4)c(Cl)c3)c2c1O[C@@H]1CCN(C)CC1(F)F

>  <assay result>
13.3 µM

$$$$

// data source = patent US11723908B2
